B1: library; a variant is named by its letters at N, in order (parent)
chain: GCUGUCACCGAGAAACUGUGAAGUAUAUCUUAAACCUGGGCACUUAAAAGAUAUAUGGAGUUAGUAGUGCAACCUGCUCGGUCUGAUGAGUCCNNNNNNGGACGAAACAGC

# Variants of: B1
# procedureSummary: normalized RNA/DNA level with ligand (relative to sTRSVctl = 100) (log10 (% of sTRSVctl)); HEK293T; ligand: cyclic di-GMP (c-di-GMP-II aptamer); ligand concentration (+) RNA-Seq: 1 mM; higher = less ribozyme self-cleavage, higher mRNA level
# conditionDescription: reporter: mCherry (pCS4076), ligand present: yes
Reported normalized RNA/DNA level with ligand (log10) by item:
observationType: normalized RNA/DNA level with ligand (log10)

mutationkey=AUUGGA obsvalue=1.62
mutationkey=GCGUCC obsvalue=1.81
mutationkey=GGAGGC obsvalue=1.79
mutationkey=AGUGUG obsvalue=1.71
mutationkey=GACGAA obsvalue=1.65
mutationkey=GCAAAU obsvalue=1.61
mutationkey=UGGAGU obsvalue=1.76
mutationkey=UUUGAC obsvalue=1.87
mutationkey=ACGGCC obsvalue=1.87
mutationkey=ACUCUA obsvalue=1.77
mutationkey=CCGUCA obsvalue=1.79
mutationkey=GAAUCG obsvalue=1.8
mutationkey=CUAUUC obsvalue=1.85
mutationkey=CUUCGA obsvalue=1.84
mutationkey=GACGAC obsvalue=1.78
mutationkey=GUGACA obsvalue=1.79
mutationkey=AAUUCA obsvalue=1.8
mutationkey=GACGGG obsvalue=1.85
mutationkey=CAAUUG obsvalue=1.87
mutationkey=UUGCCG obsvalue=1.91
mutationkey=ACCUAC obsvalue=1.85
mutationkey=AUUAAG obsvalue=1.75
mutationkey=GGGUCC obsvalue=1.95
mutationkey=GGUGAA obsvalue=1.61
mutationkey=GCCGAC obsvalue=1.67
mutationkey=CUAAUC obsvalue=1.81
mutationkey=AAGCAG obsvalue=1.9
mutationkey=UGCGCU obsvalue=1.89
mutationkey=UGGCUA obsvalue=1.87
mutationkey=AAAGUU obsvalue=1.77
mutationkey=GUCGUU obsvalue=1.8
mutationkey=GAGGCC obsvalue=1.89
mutationkey=AGGCUC obsvalue=1.87
mutationkey=GGUCCA obsvalue=1.95
mutationkey=GAAUUG obsvalue=1.74
mutationkey=ACGCGG obsvalue=1.8
mutationkey=CUAGUA obsvalue=1.7
mutationkey=GACCAG obsvalue=1.91
mutationkey=UAGCGA obsvalue=1.76
mutationkey=UGGCUG obsvalue=1.9
mutationkey=AGCCGA obsvalue=1.84
mutationkey=GCUUUA obsvalue=1.83
mutationkey=UAGCGG obsvalue=1.95
mutationkey=GAUCUA obsvalue=1.81
mutationkey=CCGCUG obsvalue=1.56
mutationkey=GGCUCA obsvalue=1.88
mutationkey=UCCUCU obsvalue=1.87
mutationkey=ACACGA obsvalue=1.55
mutationkey=ACUUAA obsvalue=1.68
mutationkey=UGCCAC obsvalue=1.88
mutationkey=UUGAGC obsvalue=1.86
mutationkey=AAACUA obsvalue=1.65
mutationkey=UGUUGC obsvalue=1.89
mutationkey=AGGAGU obsvalue=1.67
mutationkey=AGGGAU obsvalue=1.74
mutationkey=CAUUGU obsvalue=1.88
mutationkey=AAAAGA obsvalue=1.56
mutationkey=AGGAGG obsvalue=1.74
mutationkey=UGGUCC obsvalue=1.98
mutationkey=GUAACU obsvalue=1.82
mutationkey=ACCCAA obsvalue=1.74
mutationkey=UGGGAC obsvalue=1.84
mutationkey=AGUCUU obsvalue=1.84
mutationkey=UAUCGG obsvalue=1.84
mutationkey=GCGAGA obsvalue=1.63
mutationkey=GUAACA obsvalue=1.81
mutationkey=CCGUGU obsvalue=1.86
mutationkey=UCGGUC obsvalue=1.83
mutationkey=ACCAGC obsvalue=1.77
mutationkey=AAUCAU obsvalue=1.78
mutationkey=GCACCG obsvalue=1.86
mutationkey=CCCGGG obsvalue=1.91
mutationkey=GCAUUU obsvalue=1.74
mutationkey=ACAGUC obsvalue=1.78
mutationkey=AGGGGU obsvalue=1.7
mutationkey=AUCAUC obsvalue=1.93
mutationkey=UAGACG obsvalue=1.87
mutationkey=GGCUGU obsvalue=1.79
mutationkey=UCUUGG obsvalue=1.93
mutationkey=CAUUCG obsvalue=1.95
mutationkey=AGGGAG obsvalue=1.73
mutationkey=UAGGUU obsvalue=1.82
mutationkey=CUGAUG obsvalue=1.58
mutationkey=AGGAAA obsvalue=1.52
mutationkey=ACGCGA obsvalue=1.62
mutationkey=AUGUCA obsvalue=1.78
mutationkey=UCAGGA obsvalue=1.67
mutationkey=UUAUCG obsvalue=1.86
mutationkey=AUUGUC obsvalue=1.85
mutationkey=AGUGCG obsvalue=1.85
mutationkey=AACGAU obsvalue=1.76

Origin of values: the supplement of paper PMC6757056
